Collected Inhibition values appear next to each entry.
- Test system: Plasmodium falciparum
- assayRemarks: GSK_TCMDC: Inhibition of Plasmodium falciparum Dd2 in whole red blood cells, using parasite LDH activity as an index of growth. Test compounds present at 2uM
- Type: functional
Express the result in % but write the number alone.

Example compounds with recorded Inhibition:
> print(dat)
                                   compound  endpointunit  readoutvalue
1  O=C(Nc1cc(Cl)ccc1-n1cncn1)C1(c2ccccc2)CC1             %            91
2  O=C(Nc1cccnc1)c1cc(-c2cc(Cl)ccc2O)n[nH]1             %            85
3  COc1ccc(Nc2nccc(NCCNC(=O)Nc3cc(C)ccc3C)n2)cc1             %             0
4  Cc1cc(C=C2SC(=Nc3ccccc3)N(C3CCCC3)C2=O)c(C)n1-c1ccc(Cl)cc1             %            70
5  Cc1cc(NCCC(=O)Nc2ccccc2)nc(NCCc2cccnc2)n1.O=C(O)C(F)(F)F             %             4

Param readout= Inhibition; system= Plasmodium falciparum; entry= "Cc1ccc(Cc2c(C)nc3nc(N)nc(N)c3c2C)cc1.Cl" ; returns value.
1

# returns recorded Inhibition (system: Plasmodium falciparum) for "CC(C)(C)c1ccc(/C=C/C(=O)NCCCCCN2CCC(c3c[nH]c4ccccc34)CC2)cc1"
12

Query the reported Inhibition for Plasmodium falciparum; item: "CN(C)CCCOc1ccc(CN2CC[C@H](NC(=O)c3ccc(Cl)c(Cl)c3)C2)c2ccccc12.O=C(O)C(F)(F)F"
97

API: value(readout= Inhibition, system= Plasmodium falciparum, query= "O=C(O)C(F)(F)F.O=S(=O)(NCCN1CCCC1)c1cccc(-c2ccc(CNCc3ccccc3)cc2)c1" )
41

Can you look up Inhibition on Plasmodium falciparum for "CN1CCCc2ccc(NC(=O)C=Cc3ccc(-c4ccc(F)cc4F)o3)cc2C1.O=C(O)C(F)(F)F" ?
20

Plasmodium falciparum / Inhibition / CC(C)C(=O)NC(c1cccs1)c1cc(Cl)c2cccnc2c1O (centres undefined) : value?
91

Notebook entry, Plasmodium falciparum assay: Inhibition of "O=C(/C=C/c1ccc(Cl)c(Cl)c1)NCCCCCN1CC[C@H](NC(=O)Nc2ccc(Oc3ccccc3)cc2)C1" = ?
14

I'm curious: which Inhibition was measured for "COc1ccc(-c2ncnc(C(F)(F)F)c2-c2ccc(Cl)cc2)c(O)c1" tested on Plasmodium falciparum?
22

Lab note: need Inhibition for "CN1CCN(c2cc(-c3ccncc3)nc(-c3cccnc3)n2)CC1" on Plasmodium falciparum, anyone have it?
98

---

A collection of molecules and their measured Inhibition
- Test system: HepG2
- assayRemarks: GSK_TCMDC: Percent inhibition of human HepG2 cell line. Test compounds present at 10uM.
- Type: functional
// units = %; emit number, no label

Example cases with answers are listed next.
> print(dat)
                                   molecule  targetdesc  readoutvalue
1  CCc1ccccc1N1CCN(CCCC(=O)c2ccc(NC(=O)c3cc(Cl)cc(Cl)c3)cc2)CC1       HepG2            16
2  CC(=O)Nc1ccc(C(=O)Nc2cccc(-c3ccc(-c4nc5cc(F)ccc5[nH]4)cc3)c2)cn1       HepG2            10
3  CN(C(=O)c1cc2c(-c3cncnc3)cccc2[nH]1)c1ccccc1       HepG2             1

What measured Inhibition is associated with "Cn1nccc1C(=O)NCCNCc1ccc(-c2ccc(-c3nc4cc(F)ccc4[nH]3)cc2)cc1.O=C(O)C(F)(F)F" on HepG2?
28

Form: Entry = "COc1ccc(NC(=O)CCNc2cc(C)nc(Nc3ccccc3)n2)cc1.O=C(O)C(F)(F)F" | System = HepG2 | Inhibition = ____
0

Observed Inhibition on HepG2 for "Cn1nc(-c2ccc(Cl)cc2)c2cc(C(=O)NCCN3CCOCC3)sc21" , please.
21

Tell me reported Inhibition for CCOc1ccccc1NC(=O)C(Sc1nc(C)cc(C)c1C#N)c1ccccc1 (configuration not stated) , tested with HepG2.
0

---

- Test system: Plasmodium falciparum
- assayRemarks: GSK_TCMDC: Inhibition of Plasmodium falciparum Dd2 in whole red blood cells, using parasite LDH activity as an index of growth. Test compounds present at 2uM
- Type: functional
Response key: Yes means Inhibition >= 40%; No means Inhibition < 40%.

API: above_or_equal(metric=Inhibition, cutoff=40%) for item Cl.N=c1n(CCN2CCCCC2)c2ccccc2n1CC(O)c1cccc(Br)c1 (stereo unspecified)
No

# bool: Inhibition of "CCc1ccc(C2CCN(CCCCNC(=O)c3ccc(-c4ccc(C(F)(F)F)cc4)cc3)CC2)c(OCCO)c1.Cl" >= 40%
Yes

---

Recorded Inhibition, one value per entry.
- Test system: Plasmodium falciparum
- assayRemarks: GSK_TCMDC: Inhibition of Plasmodium falciparum 3D7 in whole red blood cells, using parasite LDH activity as an index of growth. Test compounds present at 2uM
- Format: functional
Write the answer as a number in %, unit excluded.

Some compounds with known Inhibition results, for comparison:
> print(dat)
                                   compound             targetdesc  metricname  endpointunit  readoutvalue
1  O=C(NCCCN(Cc1ccc(F)cc1)c1ccccn1)C(c1cc2ccccc2o1)N1CCN(C(c2ccccc2)c2ccccc2)CC1 (centres undefined)  Plasmodium falciparum  Inhibition             %            97
2  N#CC(c1cccc(Cl)c1)c1ccc2c(C(F)(F)F)cc(C(F)(F)F)nc2n1 (centres undefined)  Plasmodium falciparum  Inhibition             %            96
3  O=C(Nc1ccc(F)cc1)NC1CCN(c2ccnc3cc(Cl)ccc23)C1.O=C(O)C(F)(F)F (centres undefined)  Plasmodium falciparum  Inhibition             %           100

Next item in the queue.
So what Inhibition did [O-][s+]1nc(NCCCN(Cc2cccs2)c2ccccn2)c(NCc2ccccc2)n1 (centres undefined) get with Plasmodium falciparum?
92

---

The reader will find reported Inhibition values listed item by item below.
- Tested on: Plasmodium falciparum
- assayRemarks: GSK_TCMDC: Inhibition of Plasmodium falciparum Dd2 in whole red blood cells, using parasite LDH activity as an index of growth. Test compounds present at 2uM
- Type: functional
Reply numerically in %, unit not repeated.

Recorded results for 10 molecules are shown here.
> print(dat)
                                    molecule             targetdesc  endpointunit  readoutvalue
 1  CN(C)CCOc1cccc(NC(=O)Nc2ccc(-c3ccccc3)cc2)c1.O=C(O)C(F)(F)F  Plasmodium falciparum             %            16
 2  CCC(C)CN1C(=O)C(c2ccccc2)(c2ccccc2)N=C1N.O=CO (stereo unspecified)  Plasmodium falciparum             %            79
 3  CCCCC(=O)Nc1ccc(Nc2nc(C)cc(N3CCCC3)n2)cc1  Plasmodium falciparum             %            67
 4  CS(=O)(=O)c1ccc(CCNCc2ccc(-c3ccc(CN(C(=O)C4CC(=O)c5ccccc54)C4Cc5ccccc5C4)cc3)nc2)cc1.O=C(O)C(F)(F)F (stereo unspecified)  Plasmodium falciparum             %            21
 5  O=C(/C=C/c1ccc([N+](=O)[O-])cc1)N1CCC(NS(=O)(=O)c2ccc(Br)cc2)CC1  Plasmodium falciparum             %             5
 6  CCCCCCNC(=O)C1Cc2c([nH]c3cc(Cl)ccc23)C2(CCN(Cc3ccccc3)CC2)N1 (stereo unspecified)  Plasmodium falciparum             %            56
 7  COc1ccc2ccccc2c1CCCCN1CCN(CC(c2ccc(F)cc2)N2CCC(N3CCCC3)CC2)CC1.O=C(O)C(F)(F)F (stereo unspecified)  Plasmodium falciparum             %            73
 8  CCCCCCCN1CC[C@@H](CCCc2ccnc3ccc(OCCC4CCNCC4)cc23)[C@@H](CC)C1.Cl  Plasmodium falciparum             %           100
 9  O=C(Nc1cccc(-c2ccc(CN3CCC(O)CC3)cc2)c1)c1ccc(Cl)cc1.O=C(O)C(F)(F)F  Plasmodium falciparum             %             8
10    COc1ccc2ccccc2c1C=NNc1ccnc2cc(Cl)ccc12  Plasmodium falciparum             %            94

Data request, read-out Inhibition, for "COc1cc2nc(NCCc3ccccc3)nc(NCCc3ccccc3)c2cc1OC"
100

Which Inhibition is listed for "CCN(CC)CCN(Cc1ccc(-c2ccc(C(F)(F)F)cc2)nc1)C(=O)Cn1c(SCc2ccc(F)cc2)nc(=O)c2sccc21.O=C(O)C(O)C(O)C(=O)O" ?
66

Look at this molecule and give its reported Inhibition. "O=C(Nc1ccccc1)N(Cc1ccc(-c2ccc(CNCc3ccc4c(c3)OCO4)cc2)cc1)C1CCN(Cc2ccccc2)CC1.O=C(O)C(F)(F)F"
41

Find the recorded Inhibition belonging to "Br.CC1(C)NC(N)=NC(=N)N1OCCOc1cccc(C(F)(F)F)c1" and report it.
97

Record request: Inhibition value, item "COc1ccc(CN(C)CCCc2ccc(NC(=O)c3cccc4c(O)c5ccccc5nc34)cc2)cc1OC"
54

Fill in the blank: the reported Inhibition of "O=C(/C=C/c1ccc(Cl)c(Cl)c1)NCCCCCN1CCC(NC(=S)Nc2ccc(F)cc2F)CC1" is ____.
18

// query Inhibition value for entry "CCNc1cc(CC)nc(Nc2ccc(C)cc2)n1"
24

# input molecule: "O=C(O)C(F)(F)F.O=c1[nH]ccc2nc(N[C@@H]3CCNC3)nc(Nc3cccc(S(=O)(=O)N4CCOCC4)c3)c12" ; wanted: its Inhibition
98
